system: LLC-PK1; experiment: Cytotoxicity against porcine LLC-PK1 cells assessed as cell viability after 24 hrs by MTT assay; assay type: cell-based; details: Sus scrofa, LLC-PK1, 24 h
quantity: IC50 (µM)
Write the value in µM as a bare number.

Any idea what its IC50 is? The compound is COc1cccc(C(=O)/C=C/c2cc(OC)c(Br)c(OC)c2)c1
83
